Each entry below lists one item and its recorded apparent KD of MS2 coat protein value.
# System: MS2 coat protein
# Assay comment: apparent KD of MS2 coat protein; designed switch direction (-1 OFF switch, 1 ON switch): -1; higher = weaker reporter binding
# Experimental setup: Eterna round: R95; input ligand: microRNA oligo, concentration not stated
Quantity: apparent KD of MS2 coat protein (µM)

INSERT INTO measurements (sequence_entry, quantity, quantitative_result) VALUES
  ('CGAGUGUAAGGAUAUUCGGCACUAGGGACCACCCUAGUGUAGAAGAAGGUACAUGAGGAUCACCCAUGUGGUUA [Bereisonma] (puzzle: Exclusion 4)', 'apparent KD of MS2 coat protein', 0.273),
  ('UCAUACGUUGAGGAUAUCUCAGUUAGAAUAUUUAGAGAAGGCGAUACAUGAGGAUCACCCAUGUUUAUGGGCAU [Ex-6 Malc#6] (puzzle: Exclusion 6)', 'apparent KD of MS2 coat protein', 0.286),
  ('UUUUCUUUUGUGAGGAUAUACUUCUUUUUUUUUUUGUAGAAGGCACAUGAGGAUCACCCAUGUUUUCUUUUCUG [JR_BME4_Sub027] (puzzle: Brourd''s mod of Exclusion 4)', 'apparent KD of MS2 coat protein', 0.0221),
  ('UAAAAGCGAGGAUAUACAUGAGGAUCACCCAUGUGAGGCGAAACGCCUCGGGCCAUCAGUAGAAGGUGCAAAAC [Veorgebe] (puzzle: Exclusion 3)', 'apparent KD of MS2 coat protein', 0.0707);
